Consider the following log10 Ki data for Coagulation factor X (Homo sapiens, UniProt P00742), collected from several reports.
// stored as log10 of Ki expressed in nM

Molecule	Test Target	log10 Ki
COc1ccc(-n2nc(C#N)c3ncn(-c4ccc(-c5ccccc5S(N)(=O)=O)cc4)c(=O)c32)cc1	Coagulation factor X (Homo sapiens, UniProt P00742)	0.28
COc1ccc(-n2nc(C(N)=O)c3c2C(=O)N(c2ccc(N(C)C(C)=O)cc2)CC3)cc1	Coagulation factor X (Homo sapiens, UniProt P00742)	-0.21
Nc1ncc(C(=O)NC[C@H]2CN(c3ccc(N4CCCC(C(=O)O)C4)cc3)C(=O)O2)s1.O=C(O)C(F)(F)F (some centres not stated)	Coagulation factor X (Homo sapiens, UniProt P00742)	4.68
CC(C)N1CCC(NS(=O)(=O)CCNC(=O)c2ccc(Cl)s2)CC1	Coagulation factor X (Homo sapiens, UniProt P00742)	0.30
C/N=C(/N)c1ccc(/C=C2/CCCC/C(=C\c3ccc(C(=N)N)cc3)C2=O)cc1	Coagulation factor X (Homo sapiens, UniProt P00742)	2.70
COc1ccc(-c2cccc(S(=O)(=O)N[C@@H](Cc3cccc(C(=N)N)c3)C(=O)N3CCC(NC(=O)NC(C)C)CC3)c2)c(OC)c1	Coagulation factor X (Homo sapiens, UniProt P00742)	0.48
COc1ccc(-c2cccc(S(=O)(=O)NC(Cc3cccc(C(=N)N)c3)C(=O)N3CCC(CCN)CC3)c2)cc1OC (racemic)	Coagulation factor X (Homo sapiens, UniProt P00742)	2.62
CN(C)Cc1ccccc1-c1ccc(N2CCc3c(C(F)(F)F)nn(-c4cccc(NS(C)(=O)=O)c4)c3C2=O)cc1	Coagulation factor X (Homo sapiens, UniProt P00742)	1.67

Record summary for Cc1ccc(C(=N)N)cc1Oc1nc(Oc2cccc(N(C)C)c2)c(F)c(C)c1F : reported log10 Ki = 3.08

Notebook: CCCCS(=O)(=O)N[C@H](Cc1ccccc1)C(=O)N1CCC[C@H]1C(=O)N[C@@H](CCCn1ccnc1N)B1O[C@@H]2CC3CC(C3(C)C)[C@]2(C)O1 (some centres not stated) , log10 Ki read as 2.99

The reported value for Nc1noc2ccc(-n3nc(C(F)(F)F)c4[nH]c(=O)n(-c5ccc(-c6ccccc6CN6CC[C@@H](O)C6)cc5)c(=O)c43)cc12 in terms of log10 Ki is -0.96

Reported log10 Ki for N=C(N)c1cccc(C2=NOC(Cn3cnnn3)(C(=O)Nc3ccc(-c4ccccc4S(N)(=O)=O)cc3F)C2)c1 (configuration not stated) was -0.36

Summary for this molecule, COC(=O)[C@@H]1CN(Cc2ccc(-c3ccccc3S(N)(=O)=O)cc2)C[C@H]1c1cccc(C(=N)N)c1.O=C(O)C(F)(F)F.O=C(O)C(F)(F)F (stereo in doubt; 10) : log10 Ki is 0.68

// Cc1cc2nc([C@@H](CNC(=O)c3ccc(-n4cnnc4)cc3Cl)c3ccc(F)cc3)[nH]c2cc1C : log10 Ki value = 3.18

* * *

// cross-source set; read-out = pKi; system = Coagulation factor X (Homo sapiens)
By convention, pKi is the negative base-10 log of a molar concentration.

Recorded results for 4 compounds are shown here.
>>> print(df.to_string())
                                   compound  readout_value
0  CC1CCN(C(=O)[C@H](Cc2cccc(C(=N)N)c2)NS(=O)(=O)c2cccc3cccnc23)CC1           3.75
1  COc1ccc(C(=N)N2CCC(Oc3ccc(C(Oc4ccc5c(c4)CN(C(=N)N)CC5)C(=O)O)cc3)CC2)cc1 (stereo not drawn)           7.59
2        Cc1ccc(COc2ccc3cc(C(=N)N)sc3c2)cc1           5.10
3  N=C(N)c1cccc(C[C@H](NS(=O)(=O)c2ccc(C3CCCCC3)cc2)C(=O)N2CCN(C(=N)N)CC2)c1           5.89

Item: CCCS(=O)(=O)N[C@@H](C(=O)N[C@@H](CCC(N)=O)C(=O)NCc1ccc(C(=N)N)cc1)[C@@H](C)CC | pKi: 5.57

Input NCCCN1C(=O)[C@@H]2[C@H](C1=O)[C@H](c1cc(-c3ccc(Cl)s3)on1)N1CCC[C@@H]21 (racemic) . Output pKi: 5.01

The reported value for COc1cccc2c1cc(C(=O)NCCc1ccc(O)cc1)n2Cc1cccc(C(=N)N)c1 in terms of pKi is 6.01

// recorded pKi for CN1C(=O)C(Cc2ccc(C(=N)N)cc2)Oc2cc(N(Cc3ccccc3)C(=O)C(=O)O)ccc21 (stereo not drawn) : 5.03

pKi in this record for COC(=O)CC(CCc1cccc(C(=N)N)c1)c1cccc(C(=N)N)c1 (stereo not drawn) : 5.55

* * *

Several reports have described pKi for Coagulation factor X (Homo sapiens, UniProt P00742); a selection of those results is presented here.
Bear in mind: pKi is minus log10 of a mol/L concentration; give just that figure.

Given item COc1ccc(-n2nc(C(N)=O)c3c2C(=O)N(C2CCN(c4ccccc4CN(C)C)CC2)CC3)cc1 , the value recorded as its pKi is 9.39

So for CSc1sc(C(=N)N)cc1S(=O)(=O)c1cc(Br)c2c(c1)ncn2Cc1cc(F)ccc1F , the logged pKi turned out to be 4.94

The compound listed as O=C(Nc1cccc(OCc2ccc(-c3ccccc3)cc2)c1)C1CCNCC1 has a reported pKi of 6.00

CC(=N)N1CCC(Oc2ccc3nc(C(C)(C)C)n(Cc4ccc5ccc(C(=N)N)cc5c4)c3c2)CC1 has a reported pKi of 10.34

* * *

# merged literature set: Ki with Coagulation factor X (Homo sapiens, UniProt P00742)
The reply should be a number in nM, with the unit left off.

Worked cases, answers included:
>>> print(df.to_string())
                                   compound  readout_value
0  CCOc1cc(C(Nc2ccc3cnccc3c2)C(=O)NS(=O)(=O)c2ccccc2)ccc1OC(C)C (stereo not drawn)           5400
1  C[C@H]1ON=C(c2cccc(C(=N)N)c2)[C@@H]1C(=O)Nc1ccc(-c2ccccc2S(N)(=O)=O)cc1            1.8
2  N=C(N)c1cccc(Cn2c(C(=O)NCc3cccc(Br)c3)cc3c(O)cccc32)c1            117
3  Cc1c(F)c(Oc2cccc(CN(C)C)c2)nc(Oc2cccc(C(=N)N)c2)c1F            640
4  Cc1cc(C(=O)Nc2ccc(-c3ccccc3S(N)(=O)=O)cc2)n(-c2ccc3ncnc(N)c3c2)n1             29

For N=C(N)c1cccc(C[C@H](NS(=O)(=O)c2cccc(-c3cccc(F)c3)c2)C(=O)N2CCC(CCN)CC2)c1 the compound record lists Ki as 3200

Short answer for CCS(=O)(=O)CC1(C(=O)Nc2ncc(-c3ccccc3S(N)(=O)=O)cn2)CC(c2cccc(C(=N)N)c2)=NO1 (stereo not drawn) : Ki was 5.3

* * *

We begin with pKi values for Coagulation factor X (Homo sapiens, UniProt P00742), as collected from the published literature.
For clarity, pKi is expressed as the negative log10 of concentration in mol/L.

In [3]: df
Out[3]:
                                   compound  readout_value
0  CC(C)N1CCC(NC(=O)c2cc3cc(F)ccc3n2Cc2cc(-c3ccc(Cl)s3)on2)CC1           8.52
1  COc1cc([C@@H](Nc2ccc(C(=N)N)cc2)C(=O)N[C@H](C(=O)O)c2ccccc2)c(S(=O)(=O)c2ccccc2)cc1OCc1ccccc1           4.91
2  O=C(Nc1cccc(F)c1C(=O)Nc1ccc(Cl)cc1)c1sc2ccccc2c1Cl           7.59
3  Cc1cc(C(=O)Nc2ccc(-c3ccccc3S(N)(=O)=O)cc2)n(-c2cccc(Cl)c2)n1           7.43
4  COc1c(O)cc(C(=N)N)cc1Oc1nc(Oc2cccc(C(=O)N(C)C)c2)c(F)c(C)c1F           6.80

Hey, Coagulation factor X (Homo sapiens, UniProt P00742) data for Cc1cccc2c1cc(C(=O)NCc1ccc(O)cc1)n2Cc1cccc(C(=N)N)c1 : pKi came out at 5.79

pKi for Coagulation factor X (Homo sapiens, UniProt P00742) with input C/C(=C(\F)C(=O)Nc1ccc(-c2ccccc2S(N)(=O)=O)cc1F)c1ccc2ccnc(N)c2c1 equals 8.80

Assay Coagulation factor X (Homo sapiens, UniProt P00742), sample COC(=O)C(Cc1ccccc1)C(=O)Nc1ccc2c(c1)OC(C)(COc1ccc(C(=N)N)cc1)CN2C (stereo not drawn) , pKi read: 4.45

Summary: CCOC(=O)C(Oc1ccc2c(c1)CN(C(=N)N)CC2)c1ccc(O[C@H]2CCNC2)cc1 (stereo partly drawn) , Coagulation factor X (Homo sapiens, UniProt P00742), pKi = 6.40

Entry N=C(N)N1CCc2ccc(OC(C(=O)O)c3ccc(O[C@H]4CCNC4)cc3)cc2C1 (stereo partly drawn) : pKi on Coagulation factor X (Homo sapiens, UniProt P00742) = 6.00
